Origin of values: patent US20230322924A1

tested-system: T1, Human CD33 full length (human, UniProt P20138 18-364)
T1 construct: also called huCD33
T1 sequence (P20138 18-364 limits assumed): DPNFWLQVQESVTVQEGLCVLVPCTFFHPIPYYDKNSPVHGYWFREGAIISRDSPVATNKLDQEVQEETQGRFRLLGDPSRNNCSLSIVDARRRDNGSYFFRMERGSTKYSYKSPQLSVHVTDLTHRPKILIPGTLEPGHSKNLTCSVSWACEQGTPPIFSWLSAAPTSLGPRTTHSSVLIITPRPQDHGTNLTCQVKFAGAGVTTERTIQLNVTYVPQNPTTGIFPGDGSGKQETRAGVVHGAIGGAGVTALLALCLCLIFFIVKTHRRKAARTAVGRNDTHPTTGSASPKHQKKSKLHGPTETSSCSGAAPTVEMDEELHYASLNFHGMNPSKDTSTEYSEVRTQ
run-description: flow cytometry on HEK293F cells expressing human CD33
Procedure: The purified antibodies were assessed for binding to stably transfected HEK293F cells expressing human CD33 or cyno CD33 (generation described above) along with the parental HEK293F as negative control. […] 30 μl running buffer containing Sytox Green live/dead dye (ThermoFisher) was added to all wells with cells and the plates were read on an iQue IntelliCyt flow cytometer. […] Antibody binding was assessed by the mean fluorescence intensity in the AF647 channel. […]

# binder, unit-symbol, MFI at 0 nM (background)
data = [
    ("C33B909 (antibody, V domains shown, OMNIMouse-derived anti-CD33 mAb; same V regions as C33B901; The OMNIMouse mAbs were cloned into both IgG1 and IgG4 PAA; also called C33H249/C33L115) VH: EVQLVESGGGLVQPGRSLRLSCVASGFTFDDYAIHWVRQAPGKGLEWVSGLSWNGGNIGYADSVKGRFTISRDNAKNSLYLQMNSLKTEDTAFYYCTKDTPYGDYFDYWGQGTLVTVSS VL: DIQMTQSPSSVWASVGDRVTITCRASQGISSWLAWYQQQPGKAPNLLIYRSSSLQSGVPSRFSGSGSGTDFTLTISSLQPEDFATYYCQQDNSFPYTFGQGTKLEIK", "MFI", 191),
    ("C33B910 (antibody, V domains shown, OMNIMouse-derived anti-CD33 mAb; same V regions as C33B902; also called C33H250/C33L116) VH: EVQLVESGGGLVQPGRSLRLSCAGSGFTFDDYAIHWVRQAPGKGLEWVSGLSWNGGNIGYADSVKGRFTISRDNAKNSLYLQLNSLKTEDTAFYYCAKDSPYGDYFDYWGQGTLVTVSS VL: DIQMTQSPSSEWASVGDRVTITCRASQGISSWLAWYQQKPGKAPKLLIYGASSWQSGVPSRFSGSGSGTDFTLTISSLQPEDFATYYCQQDNSFPYTFGQGTKLEIK", "MFI", 155),
    ("C33B914 (antibody, V domains shown, OMNIMouse-derived anti-CD33 mAb; same V regions as C33B906; also called C33H254/C33L120; C33F552) VH: QVQLVESGGGVVQPGRSLRLSCAASGFTFSYYGMHWVRQAPDKGLEWVAVIWFDGNNKYYADSVKGRFTISRDNSKNTLYLQMNSLRAEDTAVYYCARDRELLFDYWGQGTLVTVSS VL: SYELTQPPSVSVSPGQTASITCSGDELGDMYACWYQQKPGQSPLVVIYQDSKRPSGIPERFSGSNSGNTATLTISGTQAMDEAAYYCQTWDTRIAVFGGGTNLTVL", "MFI", 185),
    ("C33B916 (antibody, V domains shown, OMNIMouse-derived anti-CD33 mAb; same V regions as C33B908; also called C33H256/C33L122; C33F554) VH: QVQLVESGGGVVQPGRSLRLSCATSGFTFSNYGMHWVRQAPGKGLEWVAVIWYVGSHKYYADSVKGRFTISRDNSKNTLYLQMNSLRAEDTAVYYCARDGSLCFDYWGQGTLVTVSS VL: SYELTQPPSVSVSPGQTANISCSGVTLGYNYAYWYQQKPGQSPILVISQDTQRPSGIPERFSGSNSGNTATLTISGTQAMDEAAYYCQAWDITTVLFGGGTKLTVL", "MFI", 167),
    ("C33B912 (antibody, V domains shown, OMNIMouse-derived anti-CD33 mAb; also called C33H252/C33L118; C33F550) VH: EVQLVESGGGLVQPGRSLRLSCAASGFTFDDYAMHWVRQAPGKGLEWVSGIGWSGGSIVYADSVKGRFTISRDNAKNSLYLQMNSLRAEDTALYYCAKDSPYGDFFDYWGQGTLVTVSS VL: DIVMTQSPDSLAVSLGERATINCKSSQTVFYSSNNKNYLAWYQQKPGQPPKLLISWASTRKSGVPDRFSGSGSGTDFTLTVSSLQAEDVAVYYCQHYYSTPYTFGQGTKLEIK", "MFI", 150),
    ("C33B915 (antibody, V domains shown, OMNIMouse-derived anti-CD33 mAb; same V regions as C33B907; also called C33H255/C33L121; C33F553) VH: EVQLVESGGGLVQPGRSLRLSCAASGFTFDDYAMHWVRQVPGEGLEWVSGISWNGGDMVYADSVKGRFTISRDNAKNSLYLQMNSLRPEDTALYYCVKDMPYFDFLTGSDYYYYGMDVWGQGTTVTVSS VL: SYELTQPPSVSVSPGQTASITCSGDNLGNEHVCWYHQKPGQSPVLVIYQNNKRPSGIPERFSGSNSGNTATLSISGTQATDEADYYCQAWDSTTAVFGGGTKLTVL", "MFI", 112),
]
